- Tested on: EKP-treated zebrafish larvae
- TEST: Effect of ASDs on EKP-induced epileptiform discharges (LFP)
- Assay type: in vivo, Danio rerio
- MEASUREMENT_PARAMETERS: ASD at MTC, 18 h pre-incubation, 400 µM EKP, 10-min LFP recording
REPORTED_ENDPOINT: Effect on number of epileptiform discharges generated by EKP

> print(dat)
                                   compound            recorded.value
1  N#Cc1ccccc1-c1cc(-c2ccccn2)cn(-c2ccccc2)c1=O  significantly attenuated
2  CC1(C)O[C@@H]2[C@@H](CO[C@@]3(COS(N)(=O)=O)OC(C)(C)O[C@@H]23)O1 [TPM, topiramate]  significantly attenuated
3  NS(=O)(=O)Cc1noc2ccccc12 [ZSM, zonisamide]  significantly attenuated
